Tested on: RPMI-8226 leukemia
Test: NCI-60 one-dose screen, 48 h
Settings: 10 µM unless noted
Compounds without any hit were thinned out: in the full panel of roughly 83,000, 20% have a hit. Calls of active or inactive are those of the source. How the source made its calls: active means growth percent below 10; inactive means the rest.
Could you please pick one outcome from this set? active, inactive

Request: Returns: the outcome recorded for "CCOCC(O)(c1ccc(Cl)cc1)c1ccc(Cl)cc1" in this assay.
Response: inactive

Request: Returns: the outcome recorded for "O=C(Cc1ccc(Nc2ccnc(C(F)(F)F)c2)cc1)N/N=C/c1ccccc1O" in this assay.
Response: inactive

Request: Returns: the outcome recorded for "Cc1c(-c2ccc(-c3ccccc3F)cc2)nc2ccc(F)cc2c1C(=O)O" in this assay.
Response: inactive

Request: Returns: the outcome recorded for "O=C(CCCCCCc1nc2ccc(Br)cc2[nH]1)NO" in this assay.
Response: active

Request: Returns: the outcome recorded for "O=C(/C=C/c1cn(-c2ccccc2)nc1-c1cccc(Nc2ccnc3cc(Cl)ccc23)c1)c1ccc2c(c1)OCO2" in this assay.
Response: inactive

Request: Returns: the outcome recorded for "O=C(NCCNC(=O)c1cc(S(=O)(=O)NCCc2ccccc2)c(O)c(O)c1O)c1cc(S(=O)(=O)NCCc2ccccc2)c(O)c(O)c1O" in this assay.
Response: inactive

Request: Returns: the outcome recorded for "CCOC(=O)c1c(NC(=O)c2ccccc2)sc2c(O)c(CN(CC)CC)ccc12" in this assay.
Response: inactive

Request: Returns: the outcome recorded for "Nc1ccc(C(OC(=O)c2cc3ccccc3c(Cc3c(O)c(C(=O)OC(c4ccc(N)cc4)(c4ccc(N)cc4)c4ccc(N)cc4)cc4ccccc34)c2O)(c2ccc(N)cc2)c2ccc(N)cc2)cc1" in this assay.
Response: active

Request: Returns: the outcome recorded for "COc1cc2cc(C(=O)Nc3ccccc3)c(N)nc2cc1OC" in this assay.
Response: active

Request: Returns: the outcome recorded for "O=C1/C(=C\c2cccn2C(=O)c2ccccc2)c2ccccc2N1c1c(Cl)cccc1Cl" in this assay.
Response: inactive

Request: Returns: the outcome recorded for COc1ccc(C2=NN(C=O)C(c3ccc(OS(=O)(=O)c4ccc(C)cc4)c(OC)c3)C2)cc1 (centres undefined) in this assay.
Response: inactive

Request: Returns: the outcome recorded for "C=C(C)[C@@H]1CC[C@]2(C)[C@H](CC=C3[C@@H]4C[C@](C)(C(=O)N5CCN(C)CC5)CC[C@]4(C)CC[C@]32C)[C@@]1(C)CCC#N" in this assay.
Response: inactive

Request: Returns: the outcome recorded for "CN1CCN(Cc2ccc(NC(=O)c3cncc(C#Cc4ncc5ccccn45)c3)cc2C(F)(F)F)CC1" in this assay.
Response: inactive

Request: Returns: the outcome recorded for "FC1(F)CCN(Cc2c[nH]c3cc(Cl)ccc23)C[C@H]1CCc1ccccc1" in this assay.
Response: inactive

Request: Returns: the outcome recorded for COC1=CC(c2ccc[nH]2)=N/C1=C\c1[nH]c(C)c(C(=O)CCCCCCCCC(=O)O[C@H]2CC[C@H]3C4CCc5cc(O)ccc5C4CC[C@]23C)c1C (some centres undefined) in this assay.
Response: inactive

Request: Returns: the outcome recorded for OC(c1cc2cc(Cl)ccc2c2cc(C(F)(F)F)ccc12)C1CCCCN1 (centres undefined) in this assay.
Response: active

Request: Returns: the outcome recorded for "O=C(Nc1ccc2ncnc(Nc3ccc(F)c(Cl)c3)c2c1)c1cccs1" in this assay.
Response: inactive

Request: Returns: the outcome recorded for "Oc1[nH]c2ccc(Cl)cc2c1/C=c1/ccc2c(c1)N=C(c1ccc(F)cc1)N=2" in this assay.
Response: inactive

Request: Returns: the outcome recorded for "O=C(N=Nc1c(Cl)c(O)c2ccccc2c1O)C(=O)Nc1cccc(C(F)(F)F)c1" in this assay.
Response: inactive

Request: Returns: the outcome recorded for "CCOc1cccc(/C=N/NC(=O)c2ccc(Nc3ccnc(C(F)(F)F)c3)cc2)c1O" in this assay.
Response: active

Request: Returns: the outcome recorded for "Cc1nc2ccc(Nc3nc(Cl)nc(N4CCOCC4)n3)cc2n1Cc1ccccc1" in this assay.
Response: inactive

Request: Returns: the outcome recorded for "COc1ccc(/C(=C\c2cc(OC)c(OC)c(OC)c2)C(=O)Nc2nc3ccc(Cl)cc3s2)cc1" in this assay.
Response: inactive

Request: Returns: the outcome recorded for "O=C1C(Cl)=C(N/N=c2/[nH][nH]/c(=N/NC3=C(Cl)C(=O)c4ccccc4C3=O)c3ccccc23)C(=O)c2ccccc21" in this assay.
Response: inactive

Request: Returns: the outcome recorded for "Oc1[nH]c2ccccc2c1/C=c1/ccc2c(c1)N=C(c1ccc(C(F)(F)F)cc1)N=2" in this assay.
Response: inactive

Request: Returns: the outcome recorded for "O=C(NNC(=S)Nc1ccccc1)c1ccc(Nc2ncnc3c2cnn3-c2cccc(Br)c2)cc1" in this assay.
Response: inactive

Request: Returns: the outcome recorded for "F" in this assay.
Response: inactive

Request: Returns: the outcome recorded for "COc1cc2c(cc1OCCCOc1cc3c(cc1OC)C(=O)N1CCC[C@H]1C=N3)C=CC(C)(C)O2" in this assay.
Response: inactive

Request: Returns: the outcome recorded for CCOC(=O)C1=C(C)NC(SCc2nnc(-c3ccc(Cl)cc3)o2)=NC1c1ccc(Cl)cc1 (centres undefined) in this assay.
Response: inactive

Request: Returns: the outcome recorded for "NC(=O)Nc1ccc2ncnc(Nc3cccc(O)c3)c2c1" in this assay.
Response: inactive

Request: Returns: the outcome recorded for "COc1ccc(/C=c2\c(=O)n(-c3ccccc3)c3nn4c(=O)c(=O)[nH]nc4n23)cc1" in this assay.
Response: inactive

Request: Returns: the outcome recorded for "COc1ccc2[nH]c(O)c(/C=c3/ccc4c(c3)N=C(c3ccc(C(F)(F)F)cc3)N=4)c2c1" in this assay.
Response: inactive

Request: Returns: the outcome recorded for "CC(=O)O[C@H]1[C@H](CC#CC#CC[C@@H]2C[C@]3(C)[C@H]4CC=C5[C@H]6[C@@H](C)[C@H](C)CC[C@]6(C(=O)NCCN(CCN)CCN)CC[C@@]5(C)[C@]4(C)CC[C@H]3C(C)(C)[C@H]2OC(C)=O)C[C@]2(C)[C@H]3CC=C4[C@H]5[C@@H](C)[C@H](C)CC[C@]5(C(=O)NCCN(CCN)CCN)CC[C@@]4(C)[C@]3(C)CC[C@H]2C1(C)C" in this assay.
Response: inactive

Request: Returns: the outcome recorded for "COc1ccc(-c2nc(-c3cc(OC)cc(OC)c3)[nH]c2-c2ccc(OC)cc2)cc1" in this assay.
Response: active

Request: Returns: the outcome recorded for "O=c1[nH]c2ccccc2n2cc3cccnc3c12" in this assay.
Response: inactive

====

Tested on: CCRF-CEM leukemia
Test: NCI-60 one-dose screen, 48 h
Conditions: 10 µM unless noted
About 83,000 compounds went through this panel and 20% of them were active in at least one assay; those are over-represented in the sample as a whole. Calls of active or inactive are those of the source. The calls were made as follows: active = growth percent below 10; inactive = the rest.
Could you please pick one outcome from this set? 1 (active), 0 (inactive)

Request: Returns: the outcome recorded for "CCCCn1cnc(-c2cc(-c3ccccc3)cc(C(F)(F)F)c2)n1" in this assay.
Response: 0

Request: Returns: the outcome recorded for "CCOC(=O)C(=CNc1ccccc1Cl)C(=O)OCC" in this assay.
Response: 0

Request: Returns: the outcome recorded for "C/C(=N\NC(=S)Nc1ccccc1)c1ccccn1" in this assay.
Response: 0

Request: Returns: the outcome recorded for "Clc1ccc2c(c1)-c1ccccc1C1=NCCN12" in this assay.
Response: 0

Request: Returns: the outcome recorded for "Nc1cccc(S(=O)(=O)c2cccc(N)c2)c1" in this assay.
Response: 0

Request: Returns: the outcome recorded for "Oc1c(-c2cc(C(F)(F)F)[nH]n2)cc(Cl)c(OCc2ccc(Cl)cc2)c1-c1ccc(Cl)c(C(F)(F)F)c1" in this assay.
Response: 1

Request: Returns: the outcome recorded for "COc1cc2c(cc1I)-c1c(cc(OC)c(OC)c1OC)CC[C@@H]2NC(C)=O" in this assay.
Response: 0

Request: Returns: the outcome recorded for "COc1ccc(-c2cn(-c3cccc(C(=O)/C=C/c4ccc(O)c(OC)c4)c3)c(=O)[nH]2)cc1" in this assay.
Response: 1

Request: Returns: the outcome recorded for "O=S(=O)(NCC[C@@H]1C[C@H]1c1ccc2ccccc2c1)c1ccc(C(F)(F)F)cc1" in this assay.
Response: 0

Request: Returns: the outcome recorded for COc1cc(C2CC(c3ccc(Cl)cc3)=NN2C=O)ccc1OS(=O)(=O)c1ccc(C)cc1 (stereo not given) in this assay.
Response: 0

====

Test system: HS 578T breast
Experiment: NCI-60 one-dose screen, 48 h (100 = growth as untreated, 0 = no growth, -100 = all killed)
Conditions: 10 µM
This is part of a sample that, as a whole, favours compounds with a hit. Of some 83,000 tested, about 20% had one in any assay.
growth strictly less than 80% = 1. Otherwise 0.

Request: Report whether reported growth is lower than 80% (strictly) for "CCCCCCCCCC1=NC(C)(C)CN1C(C)(C)CO"
Response: 0

Request: Report whether reported growth is lower than 80% (strictly) for "Cc1cc(C)c2c(n1)sc1c(Nc3ccc(O)cc3)ncnc12"
Response: 0

Request: Report whether reported growth is lower than 80% (strictly) for "COc1ccc(NC(=O)c2ccc(C(F)(F)F)nc2Nc2ccc(Cl)cc2C)cc1Cl"
Response: 1

Request: Report whether reported growth is lower than 80% (strictly) for "CNC(=O)c1cc(Oc2ccc(NC(=O)c3nc(S(C)(=O)=O)n(C)c3-c3ccc(F)cc3)cc2)ccn1"
Response: 1

Request: Report whether reported growth is lower than 80% (strictly) for "C=CCn1c(C)nc2cc(Nc3nc(N4CCOCC4)nc4nc[nH]c34)ccc21"
Response: 1

Request: Report whether reported growth is lower than 80% (strictly) for CCCCC(CCc1ccccn1)C(=O)c1ccccc1 (stereo unspecified)
Response: 0

Request: Report whether reported growth is lower than 80% (strictly) for "CCOC(=O)c1ccc(NCCC(=O)O)cc1"
Response: 0

Request: Report whether reported growth is lower than 80% (strictly) for "Cc1cccc(C(=O)O)n1"
Response: 0

Request: Report whether reported growth is lower than 80% (strictly) for "c1ccc(C(CC2=NCCCN2)c2ccccc2)cc1"
Response: 0

Data credit: PubChem BioAssay (NCI)
